System: HMEC1
Assay: Boyden chamber migration assay, HMEC1
Assay type: cell-based
Conditions: Homo sapiens, HMEC-1; FBS as chemoattractant; 16 hours; read-out: IC50, migration in Boyden chamber, HMEC1
The entries below come with measured pIC50 values attached.
Keep in mind that pIC50 stands for -log10 of concentration in molar terms.

For the compound CN1CCN(Cc2cc(=O)c(OCCCCCSc3ccnc4cc(C(F)(F)F)ccc34)co2)CC1.Cl.Cl.Cl [EHT 9241, trihydrochloride] , what pIC50 is on record?
5.04

Kindly consider the entry below.
For the compound Cl.Cl.Cl.O=c1cc(CN2CCNCC2)occ1OCCCCCSc1ccnc2cc(C(F)(F)F)ccc12 [EHT 8560, trihydrochloride] , what pIC50 is on record?
5.02

====

Test system: NIH 3T3
Experiment: Cell viability assay (MTT), NIH 3T3
Assay type: cell-based, mouse
Details: Mus musculus, NIH3T3, 16 h, 10% FBS, 16-hours treatment, 1% DMSO
measuredProperty: IC50 (µM)
Express the result in µM but write the number alone.

// below: answered compounds
For the compound Cl.Cl.O=c1cc(CN2CCOCC2)occ1OCCCCCSc1ccnc2cc(C(F)(F)F)ccc12 [EHT 1864, dihydrochloride] , what IC50 is on record?
69.3

For the compound CN1CCN(Cc2cc(=O)c(OCCCCCSc3ccnc4cc(C(F)(F)F)ccc34)co2)CC1.Cl.Cl.Cl [EHT 9241, trihydrochloride] , what IC50 is on record?
25.6

Kindly consider the entry below.
For the compound NC(=O)c1nnn(Cc2cc(Cl)c(C(=O)c3ccc(Cl)cc3)c(Cl)c2)c1N [CAI, carboxyamidotriazole, reference compound] , what IC50 is on record?
95.9

====

Test system: MDA-MB-231
Assay: Cell viability assay (MTT), MDA-MB-231
Assay type: cell-based, human
Conditions: 0.5% FBS, 6-day treatment, 1% DMSO, read-out: IC50 (μM), MDA-MB-231
measuredProperty: IC50 (µM)
Express the result in µM but write the number alone.

For the compound COc1cc2c(cc1O)CC[C@@H]1[C@@H]2CC[C@]2(C)[C@@H](O)CC[C@@H]12 [2ME, 2-Methoxyestradiol, reference compound] , what IC50 is on record?
15.4

====

Test system: MDA-MB-231
Assay: Cell viability assay (MTT), MDA-MB-231
Format: cell-based, human
Settings: Homo sapiens, MDA-MB-231, 16 h, 10% FBS, 16-hours treatment, 1% DMSO, read-out: IC50 μM, MDA-MB-231
measuredProperty: IC50 (µM)
Express the result in µM but write the number alone.

For the molecule Cl.Cl.O=c1cc(CN2CCOCC2)occ1OCCCCCSc1ccnc2cc(C(F)(F)F)ccc12 [EHT 1864, dihydrochloride] , what IC50 is on record?
126

For the molecule CN1CCN(Cc2cc(=O)c(OCCCCCSc3ccnc4cc(C(F)(F)F)ccc34)co2)CC1.Cl.Cl.Cl [EHT 9241, trihydrochloride] , what IC50 is on record?
48.4

====

System: HCT116
Test: Cell viability assay (MTT), HCT116
Format: cell-based, human
Settings: 10% FBS, 6-day treatment, 1% DMSO
measuredProperty: IC50 (µM)
Express the result in µM but write the number alone.

// below: answered compounds
For the compound O=c1cc(CN2CCOCC2)occ1OCc1cccc(CSc2ccnc3cc(C(F)(F)F)ccc23)c1 , what IC50 is on record?
2.7

For the compound CNC(=O)N1CCN(Cc2cc(=O)c(OCCCCCSc3ccnc4cc(C(F)(F)F)ccc34)co2)CC1 , what IC50 is on record?
2.3

For the compound O=c1cc(CN2CCSCC2)occ1OCCCCCSc1ccnc2cc(C(F)(F)F)ccc12 , what IC50 is on record?
2.1

For the compound CN1CCN(Cc2cc(=O)c(OCCCCCSc3ccnc4cc(C(F)(F)F)ccc34)co2)CC1 , what IC50 is on record?
5.4

For the compound O=c1cc(CN2CCOCC2)occ1OCc1ccc(CSc2ccnc3cc(C(F)(F)F)ccc23)cc1 , what IC50 is on record?
3.7

For the compound O=c1cc(CN2CCOCC2)occ1OCCCCCSc1ccnc2cc(C(F)(F)F)ccc12 , what IC50 is on record?
4.9

For the compound COc1cc2c(cc1O)CC[C@@H]1[C@@H]2CC[C@]2(C)[C@@H](O)CC[C@@H]12 [2ME, 2-Methoxyestradiol, reference compound] , what IC50 is on record?
0.8

Kindly consider the entry below.
For the compound O=c1cc(COC2CCCCO2)occ1OCCCCCOc1ccnc2cc(C(F)(F)F)ccc12 (centres unmarked) , what IC50 is on record?
2.1

====

Test system: MCF7
Assay: Cell viability assay (MTT), MCF7
Assay type: cell-based
Conditions: Homo sapiens, MCF7, 144 h, 10% FBS, 6-day treatment, 1% DMSO
The entries below come with measured IC50 values attached.
Express the result in µM but write the number alone.

For the molecule CCN(CC)C(=O)N1CCN(Cc2cc(=O)c(OCCCCCSc3ccnc4cc(C(F)(F)F)ccc34)co2)CC1 [EHT 5743] , what IC50 is on record?
1.2

For the molecule Cl.Cl.O=c1cc(CN2CCOCC2)occ1OCCCCCSc1ccnc2cc(C(F)(F)F)ccc12 [EHT 1864, dihydrochloride] , what IC50 is on record?
5.6

For the molecule CN1CCN(Cc2cc(=O)c(OCCCCCSc3ccnc4cc(C(F)(F)F)ccc34)co2)CC1.Cl.Cl.Cl [EHT 9241, trihydrochloride] , what IC50 is on record?
1.2

====

Tested on: HCT116
Test: Cell viability assay (MTT), HCT116
Assay type: cell-based, human
Conditions: 0.5% FBS, 6-day treatment, 1% DMSO
measuredProperty: IC50 (µM)
Express the result in µM but write the number alone.

For the molecule COc1cc2c(cc1O)CC[C@@H]1[C@@H]2CC[C@]2(C)[C@@H](O)CC[C@@H]12 [2ME, 2-Methoxyestradiol, reference compound] , what IC50 is on record?
3.1

====

The entries below come with measured IC50 values attached.
Tested on: HCT116
Test: Cell viability assay (MTT), HCT116
Assay type: cell-based, human
Details: Homo sapiens, HCT-116, 16 h, 10% FBS, 16-hours treatment, 1% DMSO
Express the result in µM but write the number alone.

// below: answered compounds
Request body: readout IC50, system HCT116, query CN1CCN(Cc2cc(=O)c(OCCCCCSc3ccnc4cc(C(F)(F)F)ccc34)co2)CC1.Cl.Cl.Cl [EHT 9241, trihydrochloride] . Return the value.
31.3

Request body: readout IC50, system HCT116, query Cl.Cl.O=c1cc(CN2CCOCC2)occ1OCCCCCSc1ccnc2cc(C(F)(F)F)ccc12 [EHT 1864, dihydrochloride] . Return the value.
37

Kindly consider the entry below.
Request body: readout IC50, system HCT116, query NC(=O)c1nnn(Cc2cc(Cl)c(C(=O)c3ccc(Cl)cc3)c(Cl)c2)c1N [CAI, carboxyamidotriazole, reference compound] . Return the value.
44.1

====

The entries below come with measured melting point values attached.
Express the result in °C but write the number alone.

// below: answered molecules
For the molecule O=C(CCCCOc1coc(CN2CCOCC2)cc1=O)Nc1ccnc2cc(C(F)(F)F)ccc12 , what melting point is on record?
126.8

For the molecule O=c1cc(CN2CCOCC2)occ1OCc1ccccc1CSc1ccnc2cc(C(F)(F)F)ccc12 , what melting point is on record?
71.6

For the molecule O=c1cc(CF)occ1OCCCCCSc1ccnc2cc(C(F)(F)F)ccc12 , what melting point is on record?
107

Next:
For the molecule CS(=O)(=O)N1CCN(Cc2cc(=O)c(OCCCCCSc3ccnc4cc(C(F)(F)F)ccc34)co2)CC1 , what melting point is on record?
66.3

For the molecule O=c1cc(CN2CCOCC2)occ1OCCOc1ccnc2cc(C(F)(F)F)ccc12 , what melting point is on record?
125.6

====

Test system: NIH3T3
Test: Boyden chamber migration assay, NIH3T3
Format: cell-based, mouse
Conditions: FBS as chemoattractant; 16 hours
measuredProperty: IC50 (µM)
Express the result in µM but write the number alone.

For the compound CN1CCN(Cc2cc(=O)c(OCCCCCSc3ccnc4cc(C(F)(F)F)ccc34)co2)CC1 [EHT 7365] , what IC50 is on record?
6.1

====

The entries below come with measured IC50 values attached.
System: HCT116
Assay: Cell viability assay (MTT), HCT116
Type: cell-based, human
Details: 10% FBS, 6-day treatment, 1% DMSO
Express the result in µM but write the number alone.

Request body: readout IC50, system HCT116, query CC(=O)N1CCN(Cc2cc(=O)c(OCCCCCSc3ccnc4cc(C(F)(F)F)ccc34)co2)CC1 . Return the value.
2.3

Request body: readout IC50, system HCT116, query O=c1cc(COC2CCCCO2)occ1OCCCCCOc1cccc2ccsc12 (stereo not shown) . Return the value.
2

Request body: readout IC50, system HCT116, query O=c1cc(CN2CCCCC2)occ1OCCCCCSc1ccnc2cc(C(F)(F)F)ccc12 . Return the value.
2.3

Kindly consider the entry below.
Request body: readout IC50, system HCT116, query Cc1cc(OCCCCCOc2coc(COC3CCCCO3)cc2=O)c2cc(F)ccc2n1 (stereo not shown) . Return the value.
2.4

Source: patent US7514432B2
